# EXPERIMENTAL DETAILS: Primary qHTS for inhibitors of nuclear receptor binding SET domain protein 2 (NSD2) in an isogenic RCH-ACV NSD2 p.E1099K mutant (9B) (AID 1645876); note: nearly all actives have a fitted effect of over 70% in size
# APPLIED CONDITIONS: RCH-ACV (leukaemia line) NSD2 E1099K (9B) viability, CellTiter-Glo, 72 h; series mostly up to 44.9 µM
Records with an inconclusive call do not appear. Activity calls are given as the source filed them. Calls come from the whole dose curve; as a rule, active = well fitted inhibition curve with a large enough effect; inconclusive = small, poorly fitted or top-dose-only effect; inactive = flat fitted curve, though single readings scatter.
Entry note: the call must match one of 1.0 = active, 0.0 = inactive

Below are worked cases with known answers.
[[record]]
compound = "N[C@@H](Cc1ccc(O)c(O)c1)C(=O)O"
class_assignment = 0.0

[[record]]
compound = "COc1ccc(-c2ccc3cc(C(=O)O)ccc3c2)cc1C12CC3CC(CC(C3)C1)C2"
class_assignment = 0.0

[[record]]
compound = "CNCC[C@H](Oc1cccc2ccccc12)c1cccs1"
class_assignment = 1.0

[[record]]
compound = "Cc1ncc([N+](=O)[O-])n1CCO"
class_assignment = 0.0


Field: outcome | Entry: Cn1c(=O)c2c(ncn2CC(O)CO)n(C)c1=O (stereo unspecified)
0.0

Please let me know the test result on file for Cc1nnc(NS(=O)(=O)c2ccc(N)cc2)s1 .
0.0

Kindly provide the recorded test outcome for the following compound: CCc1cc(C(N)=S)ccn1
0.0

Hello, I am checking results. What call was entered for CS(=O)(=O)c1ccc([C@@H](O)[C@@H](CO)NC(=O)C(Cl)Cl)cc1 ?
0.0

What did this assay record as the result for CCOC(=O)[C@H](CCc1ccccc1)N[C@H]1CS[C@H](c2cccs2)CN(CC(=O)O)C1=O ?
0.0

What outcome does the record of this test show for CC(C)(Sc1cc(C(C)(C)C)c(O)c(C(C)(C)C)c1)Sc1cc(C(C)(C)C)c(O)c(C(C)(C)C)c1 ?
0.0

Hey, what did the test say about Nc1ccc(S(=O)(=O)Nc2ccccn2)cc1 ?
0.0

----------
# EXPERIMENTAL DETAILS: Quantitative High-Throughput drug screen in 47 multiple myeloma cell lines against the NCATS MIPE library collection: KMS27_JCRB cell viability assay (AID 1918970); note: nearly all actives have a fitted effect of over 30% in size; note: potency is the fitted concentration of half-maximal effect
# APPLIED CONDITIONS: KMS27 myeloma cells, CellTiter-Glo ATP viability, 48 h; series mostly up to 45.8 µM
# Text: PI: Beverly A. Mock Ph.D. Laboratory of Cancer Biology and Genetics, Center for Cancer Research, National Cancer Institute, National Institute of Health, Bethesda, Maryland […] 5; Detector; 425V; Luminescence; Viewlux PerkinElmer. […] 1. […] Briefly, the corresponding myeloma cell lines were screened in 1,536-well plates with 500 cells, 5-uL per well for inhibition of cell viability (assessed by measuring ATP levels with CellTiterGlo). […]
Inconclusive results are not listed. Calls of active or inactive are those of the source. Calls follow the shape of the dose curve; as a rule, active = well fitted cell-killing curve with a large enough effect; inconclusive = small, poorly fitted or top-dose-only effect, or effect the other way; inactive = no such curve, though single readings can be large or run the other way.
PROPERTY LABEL: Potency

Recorded Potency, per entry:
[[record]]
compound = "CCOc1cc(N)c(Cl)cc1C(=O)NCC1CN(Cc2ccc(F)cc2)CCO1 (stereo unspecified)"
property_label = "Potency"
assay_value = "inactive"

[[record]]
compound = "Cc1onc(-c2ccccc2Cl)c1C(=O)N[C@@H]1C(=O)N2[C@@H]1SC(C)(C)[C@@H]2C(=O)O"
property_label = "Potency"
assay_value = "inactive"

[[record]]
compound = "Cc1cc(NS(=O)(=O)c2ccc(N)cc2)no1"
property_label = "Potency"
assay_value = "inactive"

[[record]]
compound = "CCCc1cc(C(N)=S)ccn1"
property_label = "Potency"
assay_value = "inactive"

[[record]]
compound = "Cc1ccnc2c1NC(=O)c1cccnc1N2C1CC1"
property_label = "Potency"
assay_value = "1.87 µM (active)"

[[record]]
compound = "O=C(O)c1cc(=O)[nH]c(=O)[nH]1"
property_label = "Potency"
assay_value = "inactive"

[[record]]
compound = "O=C(O)c1ccc(-n2nc(-c3ccccc3O)nc2-c2ccccc2O)cc1"
property_label = "Potency"
assay_value = "18.7 µM (active)"

[[record]]
compound = "Nc1nc(=S)c2[nH]cnc2[nH]1"
property_label = "Potency"
assay_value = "inactive"

[[record]]
compound = "O=C(N[C@H](CO)[C@H](O)c1ccc([N+](=O)[O-])cc1)C(Cl)Cl"
property_label = "Potency"
assay_value = "inactive"

[[record]]
compound = "COc1ccc(-c2ccc3cc(C(=O)O)ccc3c2)cc1C12CC3CC(CC(C3)C1)C2"
property_label = "Potency"
assay_value = "inactive"


Given item Nc1ccc(S(=O)(=O)Nc2ccccn2)cc1 , the value recorded as its Potency is inactive
